Molecular target: GLUT1 (Homo sapiens)
Sequence (P11166 whole entry, species assumed): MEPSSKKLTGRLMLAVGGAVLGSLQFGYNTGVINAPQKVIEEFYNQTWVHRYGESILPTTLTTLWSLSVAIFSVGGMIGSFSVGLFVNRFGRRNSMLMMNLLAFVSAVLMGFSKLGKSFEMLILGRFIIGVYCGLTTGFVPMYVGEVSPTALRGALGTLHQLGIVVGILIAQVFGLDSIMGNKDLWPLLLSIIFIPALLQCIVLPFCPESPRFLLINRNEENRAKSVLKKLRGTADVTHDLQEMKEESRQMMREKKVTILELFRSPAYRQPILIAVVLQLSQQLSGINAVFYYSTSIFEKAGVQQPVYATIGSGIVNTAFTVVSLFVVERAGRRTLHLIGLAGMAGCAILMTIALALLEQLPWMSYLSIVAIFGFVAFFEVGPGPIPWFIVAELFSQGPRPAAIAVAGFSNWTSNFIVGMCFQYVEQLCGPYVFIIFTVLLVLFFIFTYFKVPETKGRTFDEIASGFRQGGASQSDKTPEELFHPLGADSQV
Test: Indirect measurement of GLUT1 activity by quantification of intracellular ATP levels (glucose induced ATP increase)
Format: cell-based
Design: endogenous in cells; host or cells: DLD1 or CHO-K1
Conditions: read-out: IC50 regarding glucose induced ATP increase (GLUT1 inhibition)
pIC50: −log10 of the molar value.
parameter: pIC50

molecule | measured result
COc1cccc(Cn2nc(C(F)(F)F)c(NC(=O)c3cc(C(N)=O)nc4ccc(Br)cc34)c2C)c1 [Example 1450] | 8.64
Cc1c(NC(=O)c2cc(C(N)=O)nc3cc(F)ccc23)c(C(F)(F)F)nn1Cc1ncc(C#N)cn1 [Example 423] | 8.17
COc1cc(Cn2nc(C(F)(F)F)c(NC(=O)c3cc(C(N)=O)nc4cc(F)c(Cl)cc34)c2C)ccc1C#N [Example 1666] | 9.10
Cc1nn(Cc2ccc(S(C)(=O)=O)cc2)c(C)c1NC(=O)c1cc(C(F)(F)F)nc2ccc(Br)cc12 [Example 217] | 8.49
COCc1ccc(Cn2nc(C(F)(F)F)c(NC(=O)c3cc(C(N)=O)nc4cccc(F)c34)c2C)cc1 [Example 402] | 8.17
Cc1nn(Cc2ccc(C(=O)NCC3CCCO3)cc2)c(C)c1NC(=O)c1cc(C(F)(F)F)nc2ccc(Br)cc12 (stereo not shown) [Example 1058] | 7.82
Cc1c(NC(=O)c2cc(C(N)=O)nc3ccccc23)c(C(F)(F)F)nn1Cc1ccc(C(C)O)cc1 (racemic) [Example 1615] | 7.23
CC(C)c1c(NC(=O)c2cc(C(N)=O)nc3cc(F)ccc23)c(C(F)(F)F)nn1Cc1ccc(C#N)cc1 [Example 318] | 6.45

1 = Cc1nn(Cc2ccc(C(=O)Nc3ccncc3)cc2)c(C)c1NC(=O)c1cc(C(F)(F)F)nc2ccc(Br)cc12 [Example 1173]
2 = Cc1nn(Cc2ccc(C(=O)N3CC(C#N)C3)cc2)c(C)c1NC(=O)c1cc(C(F)(F)F)nc2ccc(Br)cc12 [Example 1147]
Q: Sort 1 and 2 by pIC50 descending and give the first. Give the chosen item's label as your response.
Ans: 2

Taken from patent US20170037028A1.
